- Test system: NCI/ADR-RES ovarian
- Measurement protocol: NCI-60 one-dose screen, 48 h (100 = growth as untreated, 0 = no growth, -100 = all killed)
- Experimental parameters: 10 µM unless noted
Compounds without any hit were thinned out: in the full panel of roughly 83,000, 20% have a hit.
Observed property: growth (%)
State the answer as a number, implicitly in %.

Q: Reported growth for `COc1ccc2[nH]cc(-c3nc(-c4cn(C)c5c(Cl)nccc45)cs3)c2c1` : what is it?
Ans: 11.1

Q: Could you tell me which growth is on file for `CC(C)c1ccc(COCc2cc(CN3CCCC3)c(O)c3ncccc23)cc1` ?
Ans: -51.2

Q: Field request: growth | item: CCN1C(=O)N(CC)C2C1NN=c1s/c(=C\c3cccc([N+](=O)[O-])c3)c(=O)n12 (centres undefined)
Ans: 9.2

Q: Find the recorded growth belonging to `CCOC(=O)c1c2c(n3ccc(C)cc13)C(=O)c1ccccc1C2=O` and report it.
Ans: 95

Q: I would be grateful if you could share the reported growth for `Cc1ccc(-c2csc(NC(=O)CN3CCN(c4cc5c(cc4F)c(=O)c(C(=O)O)cn5C4CC4)CC3)n2)cc1` .
Ans: 4.91

Q: Given `Fc1cc2c(cc1Cl)N(c1ncnc3ccc(-c4cnc5[nH]ncc5c4)cc13)CC2` , state its recorded growth.
Ans: 65.2

Q: So what's the measured growth for this one? `CCn1c(SCC(=O)c2ccc(Br)cc2)nnc1-c1ccncc1`
Ans: 107

Q: So what does the record say about growth for `N#Cc1c(-c2ccc(Cl)cc2)nc(SCC(=O)NC2=NN=C(c3ccccc3)CS2)[nH]c1=O` ?
Ans: 86.7

Q: Given the entry `CCCCCCCCn1ccc2cc(NC(=O)CN3CCN(c4nc(C)cc(Cl)n4)CC3)ccc21` , report its measured growth.
Ans: 93.2

These measurements were taken from PubChem BioAssay (NCI).
